Source listed as patent US20260125382A1.

Target: CDK2 (Homo sapiens, UniProt P24941)
Construct: endogenous in cells; host or cells: MDA-MB-231
Assay: CDK protein degradation activity (Western blotting), CDK2
Type: cell-based
Conditions: MDA-MB-231 cells, 0.1 μM, 16 hours, Western blot
Enzyme degradation CDK2 (% remaining) @ 0.1 μM strictly under 60% means fulfilled; at 60% or over means not fulfilled.

Take a look at these entries with their results.
COMPOUND | GROUP
O=C1CC[C@H](N2C(=O)c3cccc(NCC(=O)N4CCC(CN5CCC(CNc6ncnc7c6ncn7C6CC(NC(=O)Cc7ccccc7)C6)CC5)CC4)c3C2=O)C(=O)N1 (stereo partly shown) [Compound 184] | not fulfilled
Cc1cccc(C(=O)N[C@H]2C[C@@H](n3cnc4c(NC5CCN(CCOC6CCN(C(=O)CNc7ccc8c(c7)C(=O)N(C7CCC(=O)NC7=O)C8=O)CC6)CC5)ncnc43)C2)n1 (stereo partly shown) [Compound 45] | not fulfilled
CC(=O)N[C@H]1C[C@@H](n2cnc3c(NCc4ccc(N5CCN(CC6CCN(C(=O)CNc7ccc8c(c7)C(=O)N([C@H]7CCC(=O)NC7=O)C8=O)CC6)CC5)cc4)ncnc32)C1 [Compound 161] | not fulfilled
Cc1cccc(C(=O)N[C@H]2C[C@@H](n3cnc4c(Nc5ccc(N6CCN(C7CC8(CCN(C(=O)C9CN(c%10ccc%11c(c%10)C(=O)N(C%10CCC(=O)NC%10=O)C%11=O)C9)CC8)C7)CC6)cc5)ncnc43)C2)n1 (stereo partly shown) [Compound 387] | fulfilled
O=C1CC[C@@H](c2cccc(OCC(=O)N3CCC4(CC3)CC(N3CCC(c5ccc(Nc6ncnc7c6ncn7C6CC(NC(=O)Cc7ccccc7)C6)cc5)CC3)C4)c2)C(=O)N1 (stereo partly shown) [Compound 285] | fulfilled
Cc1cccc(C(=O)N[C@H]2C[C@H](n3cnc4c(NCC5CCN(C(=O)CCCCCNC(=O)CNc6ccc7c(c6)C(=O)N([C@@H]6CCC(=O)NC6=O)C7=O)CC5)ncnc43)C2)n1 (stereo in doubt) [Compound 61] | not fulfilled

For this compound, is Enzyme degradation CDK2 (% remaining) @ 0.1 μM lower than 60%? O=C1CC[C@H](N2C(=O)c3cccc(OCC(=O)N4CCC(CN5CCC(CNc6ncnc7c6ncn7C6CC(NC(=O)c7c(Cl)cccc7Cl)C6)CC5)CC4)c3C2=O)C(=O)N1 (stereo partly shown) [Compound 168]
fulfilled

For this compound, is Enzyme degradation CDK2 (% remaining) @ 0.1 μM lower than 60%? O=C1CCC(n2nnc3ccc(N4CC(N5CCN(c6ccc(Nc7ncnc8c7ncn8[C@H]7C[C@@H](NC(=O)Cc8ccccc8)C7)cc6)CC5)C4)cc3c2=O)C(=O)N1 (stereo partly shown) [Compound 346]
fulfilled

For this compound, is Enzyme degradation CDK2 (% remaining) @ 0.1 μM lower than 60%? Cc1cccc(C(=O)N[C@H]2C[C@H](n3cnc4c(NCCCN5CCN(C(=O)CNc6ccc7c(c6)C(=O)N([C@@H]6CCC(=O)NC6=O)C7=O)CC5)ncnc43)C2)n1 [Compound 141]
not fulfilled

For this compound, is Enzyme degradation CDK2 (% remaining) @ 0.1 μM lower than 60%? O=C(COc1ccc(C2CCC(=O)NC2=O)cc1)NC[C@H]1CC[C@H](CN2CCN(c3ccc(Nc4ncnc5c4ncn5[C@H]4C[C@@H](NC(=O)Cc5ccccc5)C4)cc3)CC2)CC1 (stereo partly shown) [Compound 217]
not fulfilled

For this compound, is Enzyme degradation CDK2 (% remaining) @ 0.1 μM lower than 60%? O=C1CC[C@H](N2C(=O)c3ccc(N4CCC(C(=O)N5CCN(C6CC7(CCN(c8ccc(Nc9ncnc%10c9ncn%10[C@H]9C[C@@H](NC(=O)Cc%10ccccc%10)C9)cc8)CC7)C6)CC5)CC4)cc3C2=O)C(=O)N1 [Compound 361]
fulfilled
